Test system: SKMEL28
Experiment: Efficacy screening assay
Type: cell-based
Conditions: Homo sapiens, SK-MEL-28; SKMEL28, skin; 72 h; read-out: EC50
OBSERVABLE: pEC50
Give only the number. pEC50 is defined as minus log10 of concentration in molar units.

Given the compound CN(C)Cc1ccc(S(=O)(=O)n2ccc(/C=C/C(=O)NO)c2)cc1 , write its reported pEC50.
5.48

---

Test system: MHHES1
Test: Efficacy screening assay
Format: cell-based
Settings: Homo sapiens, MHH-ES-1, 72 h, MHHES1, bone, read-out: EC50
OBSERVABLE: EC50 (nM)
The figure you give is taken to be in nM; do not add the unit.

Given the molecule CN(C)Cc1ccc(S(=O)(=O)n2ccc(/C=C/C(=O)NO)c2)cc1 , write its reported EC50.
1380

---

Test system: HELA
Assay: Efficacy screening assay
Type: cell-based
Conditions: cervix, 72 h, read-out: EC50
OBSERVABLE: EC50 (µM)
The figure you give is taken to be in µM; do not add the unit.

// fetch EC50; item: CN(C)Cc1ccc(S(=O)(=O)n2ccc(/C=C/C(=O)NO)c2)cc1 ; system: HELA
3.32

---

Tested on: PANC1005
Assay: Efficacy screening assay
Type: cell-based
Conditions: Homo sapiens, Panc1005, 72 h, PANC1005, pancreas, read-out: EC50
OBSERVABLE: pEC50
Give only the number. pEC50 is defined as minus log10 of concentration in molar units.

Given the molecule CN(C)Cc1ccc(S(=O)(=O)n2ccc(/C=C/C(=O)NO)c2)cc1 , write its reported pEC50.
5.24

---

System: OVCAR3
Assay: Efficacy screening assay
Format: cell-based
Conditions: Homo sapiens, OVCAR-3, 72 h, OVCAR3, ovary, read-out: EC50
OBSERVABLE: EC50 (µM)
The figure you give is taken to be in µM; do not add the unit.

Given the compound CN(C)Cc1ccc(S(=O)(=O)n2ccc(/C=C/C(=O)NO)c2)cc1 , write its reported EC50.
3.55

---

Tested on: CLS439
Assay: Efficacy screening assay
Format: cell-based
Settings: 72 h, CLS439, bladder, read-out: EC50
OBSERVABLE: pEC50
Give only the number. pEC50 is defined as minus log10 of concentration in molar units.

// fetch pEC50; item: CN(C)Cc1ccc(S(=O)(=O)n2ccc(/C=C/C(=O)NO)c2)cc1 ; system: CLS439
6.11

---

System: HELA
Experiment: Efficacy screening assay
Assay type: cell-based
Conditions: Homo sapiens, HeLa, 72 h, cervix, read-out: EC50
OBSERVABLE: EC50 (µM)
The figure you give is taken to be in µM; do not add the unit.

// fetch EC50; item: CN(C)Cc1ccc(S(=O)(=O)n2ccc(/C=C/C(=O)NO)c2)cc1 ; system: HELA
3.31

---

System: HS729
Test: Efficacy screening assay
Format: cell-based
Conditions: HS729, muscle; 72 h; read-out: EC50
OBSERVABLE: pEC50
Give only the number. pEC50 is defined as minus log10 of concentration in molar units.

Given the compound CN(C)Cc1ccc(S(=O)(=O)n2ccc(/C=C/C(=O)NO)c2)cc1 , write its reported pEC50.
5.47

---

Test system: MCF7
Assay: Efficacy screening assay
Assay type: cell-based
Settings: Homo sapiens, MCF7, 72 h, MCF7, breast, read-out: EC50
OBSERVABLE: pEC50
Give only the number. pEC50 is defined as minus log10 of concentration in molar units.

Given the compound CN(C)Cc1ccc(S(=O)(=O)n2ccc(/C=C/C(=O)NO)c2)cc1 , write its reported pEC50.
5.77

---

Test system: MG63
Experiment: Efficacy screening assay
Format: cell-based
Details: MG63, bone; 72 h; read-out: EC50
OBSERVABLE: EC50 (µM)
The figure you give is taken to be in µM; do not add the unit.

Given the compound CN(C)Cc1ccc(S(=O)(=O)n2ccc(/C=C/C(=O)NO)c2)cc1 , write its reported EC50.
1.75

---

Tested on: HS578T
Experiment: Efficacy screening assay
Type: cell-based
Conditions: breast, 72 h, read-out: EC50
OBSERVABLE: pEC50
Give only the number. pEC50 is defined as minus log10 of concentration in molar units.

Given the compound CN(C)Cc1ccc(S(=O)(=O)n2ccc(/C=C/C(=O)NO)c2)cc1 [resminostat, Resminostat] , write its reported pEC50.
5.39

---

Test system: U2OS
Test: Efficacy screening assay
Assay type: cell-based
Details: bone, 72 h, read-out: EC50
OBSERVABLE: pEC50
Give only the number. pEC50 is defined as minus log10 of concentration in molar units.

Given the compound CN(C)Cc1ccc(S(=O)(=O)n2ccc(/C=C/C(=O)NO)c2)cc1 [resminostat, Resminostat] , write its reported pEC50.
5.94

---

Test system: A549
Assay: Efficacy screening assay
Format: cell-based
Settings: Homo sapiens, A549, 72 h, A549, lung, read-out: EC50
OBSERVABLE: EC50 (µM)
The figure you give is taken to be in µM; do not add the unit.

Given the molecule CN(C)Cc1ccc(S(=O)(=O)n2ccc(/C=C/C(=O)NO)c2)cc1 , write its reported EC50.
3.5

---

Tested on: CACO2
Assay: Efficacy screening assay
Assay type: cell-based
Conditions: Homo sapiens, Caco-2, 72 h, CACO2, colon, read-out: EC50
OBSERVABLE: EC50
Number first, unit second.

Given the compound CN(C)Cc1ccc(S(=O)(=O)n2ccc(/C=C/C(=O)NO)c2)cc1 [resminostat, Resminostat] , write its reported EC50.
1780 nM

---

EC50 by entry:
System: HepG2
Assay: Proliferation assay
Format: cell-based
Details: Homo sapiens, 96 h; HepG2, fetal bovine serum, 4 days; read-out: EC50 in FBS
The figure you give is taken to be in nM; do not add the unit.

In [3]: df
Out[3]:
                                     smiles  unit_spec  value
0  CN(C)Cc1ccc(S(=O)(=O)n2ccc(/C=C/C(=O)NO)c2)cc1         nM    500

Could you now look at the following compound, please?
Given the compound CNC(=O)c1cc(Oc2ccc(NC(=O)Nc3ccc(Cl)c(C(F)(F)F)c3)cc2)ccn1 , write its reported EC50.
1800

---

Tested on: SKNAS
Test: Efficacy screening assay
Type: cell-based
Conditions: Homo sapiens, SK-N-AS, 72 h, brain, read-out: EC50
Description: The experiment was performed by Oncolead GmbH & Co. KG (Karlsfeld , Germany), based on a standardized screening procedure . Cell lines were purchased directly from the ATCC, NCI and DSMZ cell line c ollections. […] The optimal seeding density for each cell line was determined to ensure exponential growth for the duration of the experiment. All cells growing without anti-cancer agents were sub-conﬂuent by the end of the treatment, as determined by visual inspection. […]
OBSERVABLE: EC50 (µM)
The figure you give is taken to be in µM; do not add the unit.

Given the molecule CN(C)Cc1ccc(S(=O)(=O)n2ccc(/C=C/C(=O)NO)c2)cc1 [resminostat, Resminostat] , write its reported EC50.
3.54

---

System: HEK293
Assay: Efficacy screening assay
Type: cell-based
Settings: Homo sapiens, HEK293, 72 h, HEK293, kidney, read-out: EC50
Protocol: labelled fluorogenic peptide substrates: fluorogenic peptide from p53 residues 379-382 (RHKK(Ac)AMC) for HDAC1, 2, 3, 6, 10, 11; fluorogenic HDAC Class IIa Substrate (Trifluoro acetyl Lysine, Ac-LGK(TFA)-AMC) for HDAC 4, 5, 7, 9; and fluorogenic peptide from p53 residues 379-382 (RHK(Ac)K(Ac)AMC) for HDAC8. […] A kinetic measurement was performed for ~1 h with 5 min intervals and d ata from the final time point were analysed. […]
OBSERVABLE: pEC50
Give only the number. pEC50 is defined as minus log10 of concentration in molar units.

Given the molecule CN(C)Cc1ccc(S(=O)(=O)n2ccc(/C=C/C(=O)NO)c2)cc1 [resminostat, Resminostat] , write its reported pEC50.
5.32

---

Test system: ACHN
Test: Efficacy screening assay
Format: cell-based
Conditions: kidney, 72 h, read-out: EC50
OBSERVABLE: pEC50
Give only the number. pEC50 is defined as minus log10 of concentration in molar units.

Given the compound CN(C)Cc1ccc(S(=O)(=O)n2ccc(/C=C/C(=O)NO)c2)cc1 [resminostat, Resminostat] , write its reported pEC50.
5.71

---

System: HT29
Experiment: Efficacy screening assay
Assay type: cell-based
Conditions: Homo sapiens, HT-29, 72 h, HT29, colon, read-out: EC50
Experimental: The experiment was performed by Oncolead GmbH & Co. KG (Karlsfeld , Germany), based on a standardized screening procedure . Cell lines were purchased directly from the ATCC, NCI and DSMZ cell line c ollections. […] The optimal seeding density for each cell line was determined to ensure exponential growth for the duration of the experiment. All cells growing without anti-cancer agents were sub-conﬂuent by the end of the treatment, as determined by visual inspection. […]
OBSERVABLE: pEC50
Give only the number. pEC50 is defined as minus log10 of concentration in molar units.

// fetch pEC50; item: CN(C)Cc1ccc(S(=O)(=O)n2ccc(/C=C/C(=O)NO)c2)cc1 [resminostat, Resminostat] ; system: HT29
5.52
